These measurements were taken from patent US10261017B2.

Recorded DCYA binary classification: FN values for a group of compounds are listed next.
# method summary: Microplate spectrophotometric method (DCYA assay), fluorescence end-point
# condition details: false negative
Counter-ions that a name gives are not always drawn.
// keep it numeric: no unit symbol after the value

// below: answered compounds
1. O=Cc1ccccc1 : 0
2. CCC=CC=CC=O : 0
3. O=C1CCO1 : 0
4. CCC/C=C/C=O [trans-2-Hexenal] : 0
5. COc1cc(C=O)ccc1O : 0
6. CC(C=O)Cc1ccc(C(C)(C)C)cc1 (stereo not shown) : 1

Which DCYA binary classification: FN is reported for this compound? `CC(=O)C(=O)CC(C)C`
0

Which DCYA binary classification: FN is reported for this compound? `C=C(C)[C@@H]1CC=C(C)C(=O)C1`
0

Which DCYA binary classification: FN is reported for this compound? `CC=CC(=O)CC`
0

Which DCYA binary classification: FN is reported for this compound? `CCCCBr`
0

Which DCYA binary classification: FN is reported for this compound? C=C1C(=O)O[C@@H]2/C=C(\C)CC/C=C(\C)CC[C@@H]12 [Costunolide]
0

Which DCYA binary classification: FN is reported for this compound? CCOC(=O)/C=C\C(=O)OCC [Diethyl maleate]
0

Which DCYA binary classification: FN is reported for this compound? `O=c1ccc2ccccc2o1`
0
